system: Enterococcus faecalis; assay: Antimicrobial activity against Enterococcus faecalis 10-5 after 18-24 hrs by two-fold serial dilution method; type: functional
quantity-name: MIC (µg/mL)

molecule | assay-target | result-unit | experimental-result
COc1ccc(CO/N=C2\CN(c3nc4c(cc3F)c(=O)c(C(=O)O)cn4C3CC3)CC2CN)c(OC)c1.CS(=O)(=O)O (racemic) | Enterococcus faecalis | µg/mL | 0.5
CS(=O)(=O)O.NCC1CN(c2nc3c(cc2F)c(=O)c(C(=O)O)cn3C2CC2)C/C1=N\OCc1cc2c(cc1[N+](=O)[O-])OCO2 (racemic) | Enterococcus faecalis | µg/mL | 4
COc1cc(Br)c(CO/N=C2\CN(c3nc4c(cc3F)c(=O)c(C(=O)O)cn4C3CC3)CC2CN)cc1OC.CS(=O)(=O)O (racemic) | Enterococcus faecalis | µg/mL | 1

====

tested on: Enterococcus faecalis; assay: Antimicrobial activity against Enterococcus faecalis 10-5 after 18-24 hrs by two-fold serial dilution method; format: functional
quantity-name: MIC (µg/mL)

compound | experimental-result
COc1ccc(CO/N=C2\CN(c3nc4c(cc3F)c(=O)c(C(=O)O)cn4C3CC3)CC2CN)c(OC)c1OC.CS(=O)(=O)O (racemic) | 1
COc1cccc(OC)c1CO/N=C1\CN(c2nc3c(cc2F)c(=O)c(C(=O)O)cn3C2CC2)CC1CN.CS(=O)(=O)O (racemic) | 0.5
CS(=O)(=O)O.NCC1CN(c2nc3c(cc2F)c(=O)c(C(=O)O)cn3C2CC2)C/C1=N\OCc1ccc2c(c1)OCO2 (racemic) | 0.5
CS(=O)(=O)O.Cc1ccc(CO/N=C2\CN(c3nc4c(cc3F)c(=O)c(C(=O)O)cn4C3CC3)CC2CN)cc1C (racemic) | 0.5

====

test system: Streptococcus pneumoniae; experiment: Antimicrobial activity against extended spectrum beta-lactamases-producing Streptococcus pneumoniae 10-4 after 18-24 hrs by two-fold serial dilution method; assay type: functional
Recorded MIC values for a group of molecules are listed next.

molecule | assay-target | result-unit | MIC
CS(=O)(=O)O.Cc1ccc(CO/N=C2\CN(c3nc4c(cc3F)c(=O)c(C(=O)O)cn4C3CC3)CC2CN)cc1C (racemic) | Streptococcus pneumoniae | µg/mL | 0.5
COc1ccc(CO/N=C2\CN(c3nc4c(cc3F)c(=O)c(C(=O)O)cn4C3CC3)CC2CN)cc1OC.CS(=O)(=O)O (racemic) | Streptococcus pneumoniae | µg/mL | 4
COc1ccc(OC)c(CO/N=C2\CN(c3nc4c(cc3F)c(=O)c(C(=O)O)cn4C3CC3)CC2CN)c1.CS(=O)(=O)O (racemic) | Streptococcus pneumoniae | µg/mL | 0.015
CS(=O)(=O)O.NCC1CN(c2nc3c(cc2F)c(=O)c(C(=O)O)cn3C2CC2)C/C1=N\OCc1cc2c(cc1Cl)OCO2 (racemic) | Streptococcus pneumoniae | µg/mL | 2
CO/N=C1\CN(c2nc3c(cc2F)c(=O)c(C(=O)O)cn3C2CC2)CC1CN (centres undefined) | Streptococcus pneumoniae | µg/mL | 2
CS(=O)(=O)O.NCC1CN(c2nc3c(cc2F)c(=O)c(C(=O)O)cn3C2CC2)C/C1=N\OCc1cc2c(cc1[N+](=O)[O-])OCO2 (racemic) | Streptococcus pneumoniae | µg/mL | 2
COc1cccc(CO/N=C2\CN(c3nc4c(cc3F)c(=O)c(C(=O)O)cn4C3CC3)CC2CN)c1OC.CS(=O)(=O)O (racemic) | Streptococcus pneumoniae | µg/mL | 0.06
CS(=O)(=O)O.NCC1CN(c2nc3c(cc2F)c(=O)c(C(=O)O)cn3C2CC2)C/C1=N\OCc1ccc(OCc2ccccc2)cc1 (racemic) | Streptococcus pneumoniae | µg/mL | 8
COc1cc(F)c(CO/N=C2\CN(c3nc4c(cc3F)c(=O)c(C(=O)O)cn4C3CC3)CC2CN)cc1OC.CS(=O)(=O)O (racemic) | Streptococcus pneumoniae | µg/mL | 0.03
COc1cc(CO/N=C2\CN(c3nc4c(cc3F)c(=O)c(C(=O)O)cn4C3CC3)CC2CN)c([N+](=O)[O-])cc1OC.CS(=O)(=O)O (racemic) | Streptococcus pneumoniae | µg/mL | 0.125
COc1ccc(CO/N=C2\CN(c3nc4c(cc3F)c(=O)c(C(=O)O)cn4C3CC3)CC2CN)cc1.CS(=O)(=O)O (racemic) | Streptococcus pneumoniae | µg/mL | 0.125
COc1cc(CO/N=C2\CN(c3nc4c(cc3F)c(=O)c(C(=O)O)cn4C3CC3)CC2CN)ccc1OC(F)F.CS(=O)(=O)O (racemic) | Streptococcus pneumoniae | µg/mL | 2
COc1ccc(CO/N=C2\CN(c3nc4c(cc3F)c(=O)c(C(=O)O)cn4C3CC3)CC2CN)c([N+](=O)[O-])c1OC.CS(=O)(=O)O (racemic) | Streptococcus pneumoniae | µg/mL | 4
COc1cc(CO/N=C2\CN(c3nc4c(cc3F)c(=O)c(C(=O)O)cn4C3CC3)CC2CN)ccc1OCc1ccccc1.CS(=O)(=O)O (racemic) | Streptococcus pneumoniae | µg/mL | 16
COc1cc(CO/N=C2\CN(c3nc4c(cc3F)c(=O)c(C(=O)O)cn4C3CC3)CC2CN)cc(Cl)c1OC.CS(=O)(=O)O (racemic) | Streptococcus pneumoniae | µg/mL | 0.03
CS(=O)(=O)O.NCC1CN(c2nc3c(cc2F)c(=O)c(C(=O)O)cn3C2CC2)C/C1=N\OCc1ccc2c(c1)OCO2 (racemic) | Streptococcus pneumoniae | µg/mL | 2
CS(=O)(=O)O.NCC1CN(c2nc3c(cc2F)c(=O)c(C(=O)O)cn3C2CC2)C/C1=N\OCc1ccc2c(c1)OCCO2 (racemic) | Streptococcus pneumoniae | µg/mL | 2
COc1ccc(CO/N=C2\CN(c3nc4c(cc3F)c(=O)c(C(=O)O)cn4C3CC3)CC2CN)c(Cl)c1OC.CS(=O)(=O)O (racemic) | Streptococcus pneumoniae | µg/mL | 0.06
COc1cc(Br)c(CO/N=C2\CN(c3nc4c(cc3F)c(=O)c(C(=O)O)cn4C3CC3)CC2CN)cc1OC.CS(=O)(=O)O (racemic) | Streptococcus pneumoniae | µg/mL | 0.125
COc1cccc(OC)c1CO/N=C1\CN(c2nc3c(cc2F)c(=O)c(C(=O)O)cn3C2CC2)CC1CN.CS(=O)(=O)O (racemic) | Streptococcus pneumoniae | µg/mL | 0.25
COc1ccc(CO/N=C2\CN(c3nc4c(cc3F)c(=O)c(C(=O)O)cn4C3CC3)CC2CN)c(OC)c1.CS(=O)(=O)O (racemic) | Streptococcus pneumoniae | µg/mL | 4
CS(=O)(=O)O.NCC1CN(c2nc3c(cc2F)c(=O)c(C(=O)O)cn3C2CC2)C/C1=N\OCc1ccccc1 (racemic) | Streptococcus pneumoniae | µg/mL | 0.06
COc1ccc(CO/N=C2\CN(c3nc4c(cc3F)c(=O)c(C(=O)O)cn4C3CC3)CC2CN)c(OC)c1OC.CS(=O)(=O)O (racemic) | Streptococcus pneumoniae | µg/mL | 0.06
COc1cc(CO/N=C2\CN(c3nc4c(cc3F)c(=O)c(C(=O)O)cn4C3CC3)CC2CN)cc(OC)c1OC.CS(=O)(=O)O (racemic) | Streptococcus pneumoniae | µg/mL | 8
